Below, each entry is listed alongside its reported Papp at 50 μM.
Test: Blood brain barrier (BBB) permeability analysis (PAMPA)
Format: in vitro ADME
Procedure: Based on J Med Chem. 2001 Mar. 15; 44 (6):923-30., an artificial blood brain barrier (BBB) was produced by a parallel artificial membrane permeability assay (PAMPA), and the permeability of the drug was assessed.

{"columns": ["compound", "readout units", "Papp at 50 μM"],
 "data": [
  ["O=C(O)c1cc(NCCc2ccc(C(F)(F)F)cc2)ccc1O [AAD-2004, reference compound]", "×10⁻⁶ cm/s", 3.56],
  ["CNc1ccc(NCCc2ccccc2OC)cc1", "×10⁻⁶ cm/s", 67.4]
]}
